Data origin: patent US10562910B2

assay_info: Pharmacokinetics test in SD rats
Type: in vivo
stated_conditions: rat, plasma; male SD rats, iv 1 mg/kg
// values below are reported AUC(0-t)

Some molecules with recorded AUC(0-t):
                                item_smiles  recorded_value
0  O=C(O)c1ccc2c(c1)Oc1ccc(OCc3c(-c4c(Cl)cccc4Cl)noc3C3CC3)nc1C=C2F    1540 ng·h/mL
1  O=C(O)c1ccc2c(c1)Oc1ccc(OCc3c(-c4c(Cl)cccc4Cl)noc3C3CC3)nc1C(F)(F)C2    1330 ng·h/mL
2  O=C(O)c1ccc2c(c1)Oc1ccc(OCc3c(-c4c(Cl)cccc4Cl)noc3C3CC3)nc1CO2    1150 ng·h/mL

Now consider a different molecule.
Can you share its AUC(0-t)? I mean this molecule: O=C(O)c1ccc2c(c1)Oc1ccc(OCc3c(-c4c(Cl)cccc4Cl)noc3C3CC3)nc1C(F)=C2
1580 ng·h/mL

###

// values below are reported AUC(0-inf)
assay_info: Pharmacokinetics test in SD rats
Type: in vivo
stated_conditions: rat, plasma; male SD rats, po 5 mg/kg
The answer is to be given in ng·h/mL; state only the numeric part.

Some compounds with recorded AUC(0-inf):
                                item_smiles  assay_endpoint  recorded_value
0  O=C(O)c1ccc2c(c1)Oc1ccc(OCc3c(-c4c(Cl)cccc4Cl)noc3C3CC3)nc1C(F)(F)C2      AUC(0-inf)            5840
1  O=C(O)c1ccc2c(c1)Oc1ccc(OCc3c(-c4c(Cl)cccc4Cl)noc3C3CC3)nc1C=C2F      AUC(0-inf)            4210

Can you share its AUC(0-inf)? I mean this compound: O=C(O)c1ccc2c(c1)Oc1ccc(OCc3c(-c4c(Cl)cccc4Cl)noc3C3CC3)nc1C(F)=C2
7480

Can you share its AUC(0-inf)? I mean this compound: O=C(O)c1ccc2c(c1)Oc1ccc(OCc3c(-c4c(Cl)cccc4Cl)noc3C3CC3)nc1CO2
4110

###

// values below are reported half-life
assay_info: Pharmacokinetics test in SD rats
Type: in vivo
stated_conditions: rat, plasma; male SD rats, po 5 mg/kg
Procedure: Example 22 Pharmacokinetics Test Experimental animals: six healthy adult male SD rats (purchased from Hunan SJA Laboratory Animal Co. Ltd.) were divided into two groups, three rats in each group, and the two groups were given intravenous injection and oral administration respectively. Drug preparation: a quantity of a compound of the present invention was weighed, and 5% DMSO, 10% Kolliphor HS15 and 85% saline (0.9%) were added to give target concentrations of the compound solution. […]
The answer is to be given in min; state only the numeric part.

In [3]: df
Out[3]:
                                item_smiles  assay_endpoint  scale_unit  recorded_value
0  O=C(O)c1ccc2c(c1)Oc1ccc(OCc3c(-c4c(Cl)cccc4Cl)noc3C3CC3)nc1CO2       half-life         min            42.6
1  O=C(O)c1ccc2c(c1)Oc1ccc(OCc3c(-c4c(Cl)cccc4Cl)noc3C3CC3)nc1C=C2F       half-life         min            54.8
2  O=C(O)c1ccc2c(c1)Oc1ccc(OCc3c(-c4c(Cl)cccc4Cl)noc3C3CC3)nc1C(F)(F)C2       half-life         min            57.4

Now consider a different compound.
Can you share its half-life? I mean this compound: O=C(O)c1ccc2c(c1)Oc1ccc(OCc3c(-c4c(Cl)cccc4Cl)noc3C3CC3)nc1C(F)=C2
50.3
